# System: UACC-257 melanoma
# ASSAY NAME: NCI tumour cell line growth inhibition, 48 h
Reported TGI by item:

>  <MOLECULE>
CCN(C1=CC(=O)NC2CCCCN12)c1ccccc1 (stereo not given)

>  <BOUND TYPE>
>

>  <TGI, µM>
100

$$$$
>  <MOLECULE>
CCCCCCCCCCCCCCCCP(=O)(OC)OC

>  <BOUND TYPE>
=

>  <TGI, µM>
31.8

$$$$
>  <MOLECULE>
O=C1C=CC(=O)c2c(O)c(CO)c(CO)c(O)c21

>  <BOUND TYPE>
=

>  <TGI, µM>
0.883

$$$$
>  <MOLECULE>
O=P(O)(OP(=O)(O)c1ccccc1)c1ccccc1 (tested in a mixture with another compound)

>  <BOUND TYPE>
>

>  <TGI, µM>
100

$$$$
>  <MOLECULE>
C=C(C)/C=C/C(O)[C@](C)(O)[C@H]1[C@H](O)C[C@@]2(C)[C@@H]3CCc4c(cc(OC5OC(CO)C(O)C(O)C5O)c(O)c4C)C3(C)C(=O)C[C@]12C (stereo not given in full)

>  <BOUND TYPE>
>

>  <TGI, µM>
100

$$$$

----------
# System: SK-MEL-2 melanoma
# ASSAY NAME: NCI tumour cell line growth inhibition, 48 h
Reported TGI by item:
EXPERIMENTAL ENDPOINT: TGI

>  <COMPOUND>
O=C1OCC2=C1C(c1cccc(F)c1)c1cc3c(cc1N2CCO)CCC3 (configuration not stated)

>  <TGT>
SK-MEL-2 melanoma

>  <EXPERIMENTAL ENDPOINT>
TGI

>  <RESULT>
39 µM

$$$$
>  <COMPOUND>
Cc1nc(-c2nc(C)c(C(=O)/C=C/c3ccc(N(C)C)cc3)s2)sc1C(=O)/C=C/c1ccc(N(C)C)cc1

>  <TGT>
SK-MEL-2 melanoma

>  <EXPERIMENTAL ENDPOINT>
TGI

>  <RESULT>
> 100 µM

$$$$
>  <COMPOUND>
Cc1ccc(S(=O)(=O)NC(CCC(=O)NN)C(=O)NN)cc1 (configuration not stated)

>  <TGT>
SK-MEL-2 melanoma

>  <EXPERIMENTAL ENDPOINT>
TGI

>  <RESULT>
> 100 µM

$$$$
>  <COMPOUND>
COc1ccc2c(c1)CC1Cc3cc(OC)c(OC)cc3CN1CC2 (configuration not stated)

>  <TGT>
SK-MEL-2 melanoma

>  <EXPERIMENTAL ENDPOINT>
TGI

>  <RESULT>
> 100 µM

$$$$
>  <COMPOUND>
O=c1c(O)c(O)c1=O.[NH2-].[NH2-].[NH2-].[NH2-].[NH2-].[Ru+5]

>  <TGT>
SK-MEL-2 melanoma

>  <EXPERIMENTAL ENDPOINT>
TGI

>  <RESULT>
> 100 µM

$$$$
>  <COMPOUND>
CCOC(=O)[C@@H]1C2C(=C[C@H]3[C@H]1C(=O)N1CCCC[C@H]31)CCCN2C(=O)OCc1ccccc1 (some centres not stated)

>  <TGT>
SK-MEL-2 melanoma

>  <EXPERIMENTAL ENDPOINT>
TGI

>  <RESULT>
56.8 µM

$$$$
>  <COMPOUND>
COc1cc(Nc2cc(C)nc(N3CCN(c4ccnc5cc(Cl)ccc45)CC3)n2)cc(OC)c1

>  <TGT>
SK-MEL-2 melanoma

>  <EXPERIMENTAL ENDPOINT>
TGI

>  <RESULT>
> 100 µM

$$$$
